The reported numbers originate from patent US10894807B2.

Target: human PSMA (Homo sapiens (Human), UniProt Q04609)
Sequence (Q04609 whole entry): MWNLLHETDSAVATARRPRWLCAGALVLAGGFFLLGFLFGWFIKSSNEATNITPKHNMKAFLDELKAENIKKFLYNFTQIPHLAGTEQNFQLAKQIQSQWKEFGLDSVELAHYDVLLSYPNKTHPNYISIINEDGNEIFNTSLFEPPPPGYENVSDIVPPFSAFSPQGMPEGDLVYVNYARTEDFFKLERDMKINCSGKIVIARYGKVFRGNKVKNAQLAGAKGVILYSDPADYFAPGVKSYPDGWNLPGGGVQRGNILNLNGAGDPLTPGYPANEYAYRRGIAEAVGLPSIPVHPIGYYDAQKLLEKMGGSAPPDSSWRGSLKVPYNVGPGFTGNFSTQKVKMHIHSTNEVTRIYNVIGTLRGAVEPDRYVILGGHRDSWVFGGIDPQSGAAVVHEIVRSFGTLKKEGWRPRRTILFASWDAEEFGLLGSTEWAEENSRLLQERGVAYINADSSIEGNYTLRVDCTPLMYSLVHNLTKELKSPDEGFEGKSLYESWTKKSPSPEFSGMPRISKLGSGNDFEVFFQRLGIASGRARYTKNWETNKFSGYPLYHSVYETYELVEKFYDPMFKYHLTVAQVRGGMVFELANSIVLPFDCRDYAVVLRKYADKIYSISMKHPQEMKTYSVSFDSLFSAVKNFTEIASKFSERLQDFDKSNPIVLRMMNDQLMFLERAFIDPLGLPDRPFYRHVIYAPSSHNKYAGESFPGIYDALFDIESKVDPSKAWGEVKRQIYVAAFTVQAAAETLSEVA
Assay: Enzymatic assay for in vitro evaluation of PSMA inhibitors (fluorescent assay of PSMA activity, NAAG substrate, OPA detection of glutamate)
Format: biochemical
Conditions: 1.0 μM
QUANTITY KIND: PSMA Blkg % (1.0 μM) (%)
Express it in %; write the number only.

Lab note: need PSMA Blkg % (1.0 μM) with human PSMA (Homo sapiens (Human), UniProt Q04609) for entry O=C(O)CCC(C(=O)O)N1C(=O)N[C@@H](CC2CCN(C(=O)CCCc3ccc(-n4cc(CCCF)nn4)cc3)CC2)C1=O (stereo partly shown) , please look it up.
63

Lab note: need PSMA Blkg % (1.0 μM) with human PSMA (Homo sapiens (Human), UniProt Q04609) for entry O=C(O)CC[C@@H](NC(=O)N[C@@H](CCCCNC(=O)OCc1ccccc1)C(=O)O)C(=O)O , please look it up.
45

Lab note: need PSMA Blkg % (1.0 μM) with human PSMA (Homo sapiens (Human), UniProt Q04609) for entry O=C(O)CC[C@H](NC(=O)N[C@@H](CCCCNc1nc(-c2ccc3c(c2)OCO3)cs1)C(=O)O)C(=O)O , please look it up.
100

Lab note: need PSMA Blkg % (1.0 μM) with human PSMA (Homo sapiens (Human), UniProt Q04609) for entry O=C(O)CC[C@H](NC(=O)N[C@@H](CCCCNc1nc(-c2ccc(F)cc2)cs1)C(=O)O)C(=O)O , please look it up.
96

Lab note: need PSMA Blkg % (1.0 μM) with human PSMA (Homo sapiens (Human), UniProt Q04609) for entry O=C(O)CC[C@H](NC(=O)N[C@@H](CCCCNC(=O)c1cc(C(=O)Nc2ccc(C[C@H](NC(=O)N[C@@H](CCC(=O)O)C(=O)O)C(=O)O)cc2)cc(-n2cc(CCCF)nn2)c1)C(=O)O)C(=O)O , please look it up.
82

Lab note: need PSMA Blkg % (1.0 μM) with human PSMA (Homo sapiens (Human), UniProt Q04609) for entry C[C@@](Cc1cccc(NC(=O)Cn2cc(CCCF)nn2)c1)(NC(=O)N[C@@H](CCC(=O)O)C(=O)O)C(=O)O , please look it up.
27

Lab note: need PSMA Blkg % (1.0 μM) with human PSMA (Homo sapiens (Human), UniProt Q04609) for entry O=C(O)CC[C@H](NC(=O)C[C@@H](NC(=O)CCNC(=O)c1ccc(-n2cc(CCCF)nn2)cc1)C(=O)O)C(=O)O , please look it up.
62

Lab note: need PSMA Blkg % (1.0 μM) with human PSMA (Homo sapiens (Human), UniProt Q04609) for entry O=C(O)CCC(C(=O)O)N1C(=O)N[C@@H](CC2CCN(C(=O)c3ccc(-n4cc(CCCF)nn4)cc3)CC2)C1=O (stereo partly shown) , please look it up.
5

Lab note: need PSMA Blkg % (1.0 μM) with human PSMA (Homo sapiens (Human), UniProt Q04609) for entry O=C(O)CCC(CP(=O)(O)OCC1CCN(C(=O)CCCc2ccc(-n3cc(CCCF)nn3)cc2)CC1)C(=O)O (stereo not shown) , please look it up.
32

Lab note: need PSMA Blkg % (1.0 μM) with human PSMA (Homo sapiens (Human), UniProt Q04609) for entry O=C(O)CC[C@H](NC(=O)N[C@@H](CCCCNc1nc(-c2cccc(NC(=O)Cn3cc(CCCF)nn3)c2)cs1)C(=O)O)C(=O)O , please look it up.
98

Lab note: need PSMA Blkg % (1.0 μM) with human PSMA (Homo sapiens (Human), UniProt Q04609) for entry O=C(O)CC[C@H](NC(=O)N[C@@H](CCCCn1c(=O)[nH]c2ccc(OCc3cn(CCF)nn3)cc21)C(=O)O)C(=O)O , please look it up.
100

Lab note: need PSMA Blkg % (1.0 μM) with human PSMA (Homo sapiens (Human), UniProt Q04609) for entry O=C(O)CCC(NC(=O)N[C@@H](CCCCNC(=O)CCC(CCC(=O)NCCCC[C@H](NC(=O)NC(CCC(=O)O)C(=O)O)C(=O)O)(CCC(=O)NCCCC[C@H](NC(=O)NC(CCC(=O)O)C(=O)O)C(=O)O)NC(=O)c1ccc(-n2cc(CCCF)nn2)cc1)C(=O)O)C(=O)O (stereo partly shown) , please look it up.
95

Lab note: need PSMA Blkg % (1.0 μM) with human PSMA (Homo sapiens (Human), UniProt Q04609) for entry O=C(O)CC[C@H](NC(=O)N[C@@H](CCCCNc1nc(-c2cc3ccccc3s2)cs1)C(=O)O)C(=O)O , please look it up.
86

Lab note: need PSMA Blkg % (1.0 μM) with human PSMA (Homo sapiens (Human), UniProt Q04609) for entry O=C(O)CC[C@H](NC(=O)N[C@@H](Cc1ccc(NC(=O)CCC(CCC(=O)Nc2ccc(C[C@H](NC(=O)N[C@@H](CCC(=O)O)C(=O)O)C(=O)O)cc2)(CCC(=O)Nc2ccc(C[C@H](NC(=O)N[C@@H](CCC(=O)O)C(=O)O)C(=O)O)cc2)NC(=O)Cn2cc(CCCF)nn2)cc1)C(=O)O)C(=O)O , please look it up.
95

Lab note: need PSMA Blkg % (1.0 μM) with human PSMA (Homo sapiens (Human), UniProt Q04609) for entry O=C(O)CC[C@H](NC(=O)N[C@@H](CCCCNC(=O)N1CCN(C(=O)c2cc(C(=O)O)cc(-n3cc(CCCF)nn3)c2)CC1)C(=O)O)C(=O)O , please look it up.
96

Lab note: need PSMA Blkg % (1.0 μM) with human PSMA (Homo sapiens (Human), UniProt Q04609) for entry O=C(O)CC[C@H](NC(=O)C[C@@H](NC(=O)CCc1ccc(-n2cc(CCCF)nn2)cc1)C(=O)O)C(=O)O , please look it up.
34
